Test system: Heart
measurementDescription: Cardioprotective activity against Langendorff isolated mouse heart ischemia-reperfusion model assessed as minimum derivative change in diastolic pressure over time at 1 uM administered for 10 mins during start of 40 mins reperfusion period post 30 mins ischemic induction
Type: functional, tissue-based
Activity calls are given as the source filed them. The rule behind the calls is not given here. Starred links: 1 amine or outer side, 2 acyl side, 3 side chain; linkers in the order of their positions; H or OH if unused. Non-standard residues stand in square brackets, D forms with d. Residues, ends and D or L forms follow the SMILES beside them. Phe(4-Br) = N[C@@H](Cc1ccc(Br)cc1)C(=O)O; azaLeu = CC(C)CN(N[*:1])C(=O)[*:2]; NMeL = CN[C@@H](CC(C)C)C(=O)O; Nle = CCCC[C@H](N)C(=O)O; Aib = CC(C)(N)C(=O)O
readout: Activity

CCCC[C@H](NC(=O)[C@@H]1CCCN1C(=O)CNC(=O)[C@H](CCCCN)NC(=O)[C@H](Cc1c[nH]cn1)NC(=O)[C@H](CO)NC(=O)N(CC(C)C)NC(=O)[C@H](CCCNC(=N)N)NC(=O)[C@@H]1CCCN1C(=O)[C@H](CCCNC(=N)N)NC(=O)[C@H](CCC(N)=O)NC(=O)[C@H](CCCNC(=N)N)NC(=O)[C@H](CCCNC(=N)N)NC(=O)[C@H](Cc1ccccc1)NC(=O)[C@@H](N)CCCCN)C(=O)NC(C)(C)C(=O)N[C@@H](Cc1ccc(Br)cc1)C(=O)O (H-KFRRQRPR[azaLeu]SHKGP[Nle][Aib][Phe(4-Br)]-OH): Active
CCCC[C@H](NC(=O)[C@@H]1CCCN1C(=O)CNC(=O)[C@H](CCCCN)NC(=O)[C@H](Cc1c[nH]cn1)NC(=O)[C@H](CO)NC(=O)[C@H](CC(C)C)N(C)C(=O)[C@H](CCCNC(=N)N)NC(=O)[C@@H]1CCCN1C(=O)[C@H](CCCNC(=N)N)NC(=O)[C@H](CCC(N)=O)NC(=O)[C@H](CCCNC(=N)N)NC(=O)[C@H](CCCNC(=N)N)NC(=O)[C@H](Cc1ccccc1)NC(=O)[C@@H](N)CCCCN)C(=O)NC(C)(C)C(=O)N[C@@H](Cc1ccc(Br)cc1)C(=O)O (H-KFRRQRPR[NMeL]SHKGP[Nle][Aib][Phe(4-Br)]-OH): Active

====

systemTested: Neprilysin (Homo sapiens, UniProt P08473)
Sequence (P08473 whole entry): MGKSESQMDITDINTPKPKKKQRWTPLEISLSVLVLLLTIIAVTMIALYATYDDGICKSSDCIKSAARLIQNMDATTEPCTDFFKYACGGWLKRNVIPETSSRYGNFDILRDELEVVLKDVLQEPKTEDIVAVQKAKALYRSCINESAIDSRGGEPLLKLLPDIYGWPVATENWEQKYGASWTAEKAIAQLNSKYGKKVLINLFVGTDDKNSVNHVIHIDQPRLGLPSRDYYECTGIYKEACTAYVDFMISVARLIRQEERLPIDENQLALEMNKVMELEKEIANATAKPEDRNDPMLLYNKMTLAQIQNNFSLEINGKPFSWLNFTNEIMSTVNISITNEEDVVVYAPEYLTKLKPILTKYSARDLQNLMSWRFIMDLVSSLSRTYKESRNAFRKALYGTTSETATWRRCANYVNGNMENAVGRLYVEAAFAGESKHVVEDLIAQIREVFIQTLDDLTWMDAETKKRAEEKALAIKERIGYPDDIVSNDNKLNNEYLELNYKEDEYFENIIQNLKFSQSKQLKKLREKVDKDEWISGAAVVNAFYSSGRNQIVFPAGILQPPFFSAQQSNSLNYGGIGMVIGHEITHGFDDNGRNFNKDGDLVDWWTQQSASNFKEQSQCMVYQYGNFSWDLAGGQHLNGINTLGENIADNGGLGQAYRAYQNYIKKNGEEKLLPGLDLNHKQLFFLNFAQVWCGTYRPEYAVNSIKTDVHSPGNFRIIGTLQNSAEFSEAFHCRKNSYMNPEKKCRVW
measurementDescription: Drug metabolism assessed as recombinant human NEP-medited peptide proteolysis at 1 mM up to 72 hrs by LC-MS analysis
Format: ADME
measurementSetup: 1000 µM
Starred links: 1 amine or outer side, 2 acyl side, 3 side chain; linkers in the order of their positions; H or OH if unused. Non-standard residues stand in square brackets, D forms with d. Residues, ends and D or L forms follow the SMILES beside them. Phe(4-Br) = N[C@@H](Cc1ccc(Br)cc1)C(=O)O; X1 = N=C(N)NCCCN(N[*:1])C(=O)[*:2]; αMeL = CC(C)C[C@](C)(N)C(=O)O; Nle = CCCC[C@H](N)C(=O)O; Aib = CC(C)(N)C(=O)O
readout: Drug metabolism

CCCC[C@H](NC(=O)[C@@H]1CCCN1C(=O)CNC(=O)[C@H](CCCCN)NC(=O)[C@H](Cc1c[nH]cn1)NC(=O)[C@H](CO)NC(=O)[C@](C)(CC(C)C)NC(=O)[C@H](CCCNC(=N)N)NC(=O)[C@@H]1CCCN1C(=O)[C@H](CCCNC(=N)N)NC(=O)[C@@H]1CCC(=O)N1)C(=O)NC(C)(C)C(=O)N[C@@H](Cc1ccc(Br)cc1)C(=O)O: Metabolite_Notdetected
CCCC[C@H](NC(=O)[C@@H]1CCCN1C(=O)CNC(=O)[C@H](CCCCN)NC(=O)[C@H](Cc1c[nH]cn1)NC(=O)[C@H](CO)NC(=O)[C@H](CC(C)C)NC(=O)N(CCCNC(=N)N)NC(=O)[C@@H]1CCCN1C(=O)[C@H](CCCNC(=N)N)NC(=O)[C@H](CCC(N)=O)NC(=O)[C@H](CCCNC(=N)N)NC(=O)[C@H](CCCNC(=N)N)NC(=O)[C@H](Cc1ccccc1)NC(=O)[C@@H](N)CCCCN)C(=O)NC(C)(C)C(=O)N[C@@H](Cc1ccc(Br)cc1)C(=O)O (H-KFRRQRP[X1]LSHKGP[Nle][Aib][Phe(4-Br)]-OH): Metabolite_Notdetected
CCCC[C@H](NC(=O)[C@@H]1CCCN1C(=O)CNC(=O)[C@H](CCCCN)NC(=O)[C@H](Cc1c[nH]cn1)NC(=O)[C@H](CO)NC(=O)[C@](C)(CC(C)C)NC(=O)[C@H](CCCNC(=N)N)NC(=O)[C@@H]1CCCN1C(=O)[C@H](CCCNC(=N)N)NC(=O)[C@H](CCC(N)=O)NC(=O)[C@H](CCCNC(=N)N)NC(=O)[C@H](CCCNC(=N)N)NC(=O)[C@H](Cc1ccccc1)NC(=O)[C@@H](N)CCCCN)C(=O)NC(C)(C)C(=O)N[C@@H](Cc1ccc(Br)cc1)C(=O)O (H-KFRRQRPR[αMeL]SHKGP[Nle][Aib][Phe(4-Br)]-OH): Metabolite_Notdetected
